target: recombinant human PREP (Homo sapiens (Human), UniProt P48147); experiment: PREP protease activity assay; assay type: biochemical
Sequence (P48147 whole entry): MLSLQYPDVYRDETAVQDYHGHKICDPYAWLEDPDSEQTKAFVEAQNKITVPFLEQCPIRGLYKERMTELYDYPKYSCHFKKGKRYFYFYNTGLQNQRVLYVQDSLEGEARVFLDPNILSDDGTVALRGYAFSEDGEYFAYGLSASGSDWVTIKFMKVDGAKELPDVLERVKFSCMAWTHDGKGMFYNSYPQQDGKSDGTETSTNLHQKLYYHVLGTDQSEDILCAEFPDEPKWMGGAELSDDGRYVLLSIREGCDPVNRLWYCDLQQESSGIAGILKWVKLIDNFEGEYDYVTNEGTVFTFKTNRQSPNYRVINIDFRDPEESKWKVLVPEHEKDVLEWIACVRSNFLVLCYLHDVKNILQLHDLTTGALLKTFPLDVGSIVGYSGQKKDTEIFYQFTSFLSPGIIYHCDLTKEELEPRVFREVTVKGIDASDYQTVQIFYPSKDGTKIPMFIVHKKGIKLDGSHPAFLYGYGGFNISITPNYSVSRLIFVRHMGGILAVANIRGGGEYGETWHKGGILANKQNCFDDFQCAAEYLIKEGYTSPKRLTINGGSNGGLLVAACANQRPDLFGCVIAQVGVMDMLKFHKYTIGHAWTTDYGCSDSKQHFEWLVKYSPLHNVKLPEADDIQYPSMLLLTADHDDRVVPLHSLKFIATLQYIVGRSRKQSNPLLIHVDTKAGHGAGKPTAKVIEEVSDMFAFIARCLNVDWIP
Metric: pIC50 (PREP)

Some compounds with recorded pIC50 (PREP):
Compound: CS(=O)(=O)c1cccc(-c2ccc3nccc(C(=O)NCC(=O)N4CCC[C@H]4C#N)c3c2)c1 [Compound 3BP-3132]
Result Value: <6

Compound: CS(=O)(=O)c1cccc(-c2ccc3c(C(=O)NCC(=O)N4CC(F)(F)C[C@H]4C#N)ccnc3c2)c1 [Compound 3BP-3127]
Result Value: <6

Compound: CS(=O)(=O)c1ccc(-c2ccc3c(C(=O)NCC(=O)N4CCC[C@H]4C#N)ccnc3c2)cc1 [Compound 3BP-3128]
Result Value: 6.1

Compound: O=C(NCC(=O)N1CCC[C@H]1C(=O)c1nccs1)c1ccnc2ccccc12 [Compound 3BP-3206]
Result Value: 7.6

Compound: CC(C)(C)c1nnc(C(=O)[C@@H]2CCCN2C(=O)CNC(=O)c2ccnc3ccccc23)o1 [Compound 3BP-3632]
Result Value: 8.9

Provide measured pIC50 (PREP) value, entry: CS(=O)(=O)c1cccc(-c2ccc3c(C(=O)NCC(=O)N4CCC[C@H]4C#N)ccnc3c2)c1 [Compound 3BP-3133]
<6

For the compound N#C[C@@H]1CCCN1C(=O)CNC(=O)c1ccnc2cc(-c3cccc(C(=O)O)c3)ccc12 [Compound 3BP-3293] , give its reported pIC50 (PREP).
<6

Item CS(=O)(=O)c1cccc(-c2ccc3nccc(C(=O)NCC(=O)N4CC(F)(F)C[C@H]4C#N)c3c2)c1 [Compound 3BP-3126] : provide pIC50 (PREP)
<6

Quickly give me recorded pIC50 (PREP) for CS(=O)(=O)c1ccc(-c2ccc3nccc(C(=O)NCC(=O)N4CC(F)(F)C[C@H]4C#N)c3c2)cc1 [Compound 3BP-3233]
<6

###

molecular target: UniProt:Q12884; assay: FACS binding assay (competitive, Cy5-labeled 3BP-2935); conditions: FAP-expressing WI-38 fibroblasts
Sequence (Q12884 whole entry): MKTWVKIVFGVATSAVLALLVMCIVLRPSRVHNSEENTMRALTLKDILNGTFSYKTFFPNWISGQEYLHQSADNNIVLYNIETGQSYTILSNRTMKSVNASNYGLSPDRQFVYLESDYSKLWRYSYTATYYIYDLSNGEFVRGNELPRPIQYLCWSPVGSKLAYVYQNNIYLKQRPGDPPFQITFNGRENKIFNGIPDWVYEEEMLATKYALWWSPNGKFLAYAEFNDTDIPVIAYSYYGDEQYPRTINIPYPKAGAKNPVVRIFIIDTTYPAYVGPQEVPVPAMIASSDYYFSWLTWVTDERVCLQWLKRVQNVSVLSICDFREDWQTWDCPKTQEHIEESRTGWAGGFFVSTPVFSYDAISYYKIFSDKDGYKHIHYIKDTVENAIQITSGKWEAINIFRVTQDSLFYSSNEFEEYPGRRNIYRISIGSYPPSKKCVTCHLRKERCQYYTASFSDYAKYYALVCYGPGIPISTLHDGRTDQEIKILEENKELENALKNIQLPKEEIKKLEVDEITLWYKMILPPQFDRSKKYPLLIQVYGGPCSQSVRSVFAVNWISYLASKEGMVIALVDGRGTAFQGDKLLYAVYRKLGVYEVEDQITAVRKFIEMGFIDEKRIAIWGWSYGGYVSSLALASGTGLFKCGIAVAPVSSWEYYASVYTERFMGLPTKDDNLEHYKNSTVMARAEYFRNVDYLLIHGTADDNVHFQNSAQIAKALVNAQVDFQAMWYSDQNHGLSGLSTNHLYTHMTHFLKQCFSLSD
Metric: pIC50
Please treat pIC50 as minus the base-10 logarithm of the molar concentration.

Query pIC50 for O=C(O)CN1CCN(CC(=O)O)CCN(CC(=O)NCCCS(=O)(=O)c2ccc(-c3ccc4nccc(C(=O)NCC(=O)N5CCC[C@H]5C(=O)c5nc6ccccc6o5)c4c3)cc2)CCN(CC(=O)O)CC1 [Compound 3BP-3581]
8.80

###

Recorded pIC50 (DPP4) by entry
target: Recombinant human DPP4 (Homo sapiens (Human), UniProt P27487); assay: DPP4 protease activity assay; type: biochemical
Sequence (P27487 whole entry): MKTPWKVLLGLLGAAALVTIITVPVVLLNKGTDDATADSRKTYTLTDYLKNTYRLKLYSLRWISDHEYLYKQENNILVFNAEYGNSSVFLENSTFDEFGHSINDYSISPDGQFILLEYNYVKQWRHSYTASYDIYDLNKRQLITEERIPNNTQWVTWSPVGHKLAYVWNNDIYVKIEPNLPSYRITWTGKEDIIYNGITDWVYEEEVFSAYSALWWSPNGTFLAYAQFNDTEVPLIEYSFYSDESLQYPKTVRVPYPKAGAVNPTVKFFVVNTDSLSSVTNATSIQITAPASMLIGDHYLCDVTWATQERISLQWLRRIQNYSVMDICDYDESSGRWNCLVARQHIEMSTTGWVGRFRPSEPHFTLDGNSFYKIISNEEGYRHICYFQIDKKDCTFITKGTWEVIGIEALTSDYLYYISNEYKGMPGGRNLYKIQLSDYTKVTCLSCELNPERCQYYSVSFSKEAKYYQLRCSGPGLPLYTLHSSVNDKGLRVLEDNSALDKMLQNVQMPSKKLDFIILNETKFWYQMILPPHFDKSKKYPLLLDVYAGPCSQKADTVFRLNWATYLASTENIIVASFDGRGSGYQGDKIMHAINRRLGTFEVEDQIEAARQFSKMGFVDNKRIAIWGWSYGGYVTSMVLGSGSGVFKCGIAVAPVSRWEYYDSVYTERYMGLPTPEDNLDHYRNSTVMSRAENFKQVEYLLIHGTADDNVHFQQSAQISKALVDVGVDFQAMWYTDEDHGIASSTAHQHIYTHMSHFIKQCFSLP

Use these answered entries as a reference point.
Smiles String: CS(=O)(=O)c1cccc(-c2ccc3c(C(=O)NCC(=O)N4CC(F)(F)C[C@H]4C#N)ccnc3c2)c1
pIC50 (DPP4): <6
--
Smiles String: CS(=O)(=O)c1cc(F)c(-c2ccc3nccc(C(=O)NCC(=O)N4CCC[C@H]4C#N)c3c2)c(F)c1
pIC50 (DPP4): <6
--
Smiles String: N#C[C@@H]1CC(F)(F)CN1C(=O)CNC(=O)c1ccnc2ccc(OCCCN3CCN(C(=O)CN4CCN5CCN6CCN(CC4)CC(=O)[O][Lu]([O]C(=O)C6)[O]C(=O)C5)CC3)cc12
pIC50 (DPP4): <6
--
Smiles String: N#C[C@@H]1CCCN1C(=O)CNC(=O)c1ccnc2ccccc12
pIC50 (DPP4): <6
--
Smiles String: N#C[C@@H]1CCCN1C(=O)CNC(=O)c1ccnc2cc(-c3cccc(C(=O)O)c3)ccc12
pIC50 (DPP4): <6

Answer with the recorded pIC50 (DPP4) for the molecule listed here: CS(=O)(=O)c1cccc(-c2ccc3nccc(C(=O)NCC(=O)N4CC(F)(F)C[C@H]4C#N)c3c2)c1
6.1
